# System: OVCAR-4
# experimental details: NCI tumour cell line growth inhibition, 48 h
The source made the active and inactive calls. No stated cut-off is given here; in the data, active = GI50 up to about 1.1 µM and inactive = higher.
# GI50 annotations
observed property: GI50

> print(dat)
                                   compound  observed.property             measured
1  CCCOC1OC(CS(=O)(=O)O)C(O)C(O)C1O (stereo not drawn)               GI50  > 100 µM (inactive)
2  COC(=O)C(CC(=O)Nc1ccc(Cl)c(Cl)c1)C(=O)C(=O)NC1C2CC3CC(C2)CC1C3 (stereo not drawn)               GI50  > 100 µM (inactive)
3        CCN(CC)Cc1ccc(C(=S)Nc2ccc(C)cc2)s1               GI50   21.6 µM (inactive)

Where do the numbers come from? From ChEMBL document CHEMBL1201862.
